Hey, just so you know, these numbers are from patent US20240262842A1.

Tested on: MIA PaCa-2 cells
Assay: Growth inhibition activity on KRAS-G12C mutant cell line (CellTiter-Glo 3D)
Type: cell-based, human
Conditions: Homo sapiens, MIA PaCa-2, 72 h, MIA PaCa-2, 3-day culture with compound; Table 3-1
In this section we review reported IC50 values for a set of compounds.
Enter your answer as a number in µM; do not include the unit.

Q) Record request: IC50 value, item `Cc1cc2c(nc(C)n2C)c2c1-c1cccc3c(C(=O)c4cc(F)c(NC(=O)/C=C/CN5CCC[C@H]5CO)c(F)c4)cn(c13)CCN2C`
A) 0.0645

Q) Try the compound COCCn1c(C)nc2c3c(c(OC)cc21)-c1cccn2c(C(=O)c4cc(F)c(NC(=O)/C=C/CNC5(C)CC5)c(F)c4)cc(c12)CC[S+]3[O-] (stereo not drawn)
A) 0.877

Q) Same for `COCc1nc2c3c(c(C(F)(F)F)cc2n1C)-c1cccn2c(C(=O)c4cc(F)c(NC(=O)/C=C/CN[C@H]5CCOC5)c(F)c4)cc(c12)CCO3`
A) 0.0042

* * *

Overview of recorded pIC50 for various molecules
Tested on: MIA PaCa-2 cells
Experiment: Growth inhibition activity on KRAS-G12C mutant cell line (CellTiter-Glo 3D)
Format: cell-based, human
Conditions: MIA PaCa-2, 3-day culture with compound; Table 3
The read-out pIC50 is expressed as -log10 of concentration in moles per litre.

>  <Molecule>
CO[C@H]1CC[C@H](NC/C=C/C(=O)Nc2c(F)cc(C(=O)c3cn4c5c(cccc35)-c3c(C)cc5c(nc(C)n5C)c3OCC3(CC3)C4)cc2F)CC1 (single isomer, unassigned) [Example 21-1]

>  <Target Of Assay>
MIA PaCa-2 cells

>  <Result Value>
7.66

$$$$
>  <Molecule>
CO[C@H]1CC[C@H](NC/C=C/C(=O)Nc2c(F)cc(C(=O)c3cn4c5c(cccc35)-c3c(cc(N5CCCC5=O)cc3C(F)(F)F)OCC4)cc2F)CC1 (single isomer, unassigned) [Example 5-2]

>  <Target Of Assay>
MIA PaCa-2 cells

>  <Result Value>
5.74

$$$$
>  <Molecule>
Cc1nc2c3c(c(C(F)(F)F)cc2n1C)-c1cccn2c(C(=O)c4cc(F)c(NC(=O)/C=C/CNC5(C)COC5)c(F)c4)cc(c12)CCO3 (single isomer, unassigned) [Example 31-1]

>  <Target Of Assay>
MIA PaCa-2 cells

>  <Result Value>
8.15

$$$$
>  <Molecule>
CO[C@H]1CC[C@H](NC/C=C/C(=O)Nc2c(F)cc(C(=O)c3cn4c5c(cccc35)-c3c(C)cc5c(nc(C)n5C)c3OCCC4)cc2F)CC1 (single isomer, unassigned) [Example 15-2]

>  <Target Of Assay>
MIA PaCa-2 cells

>  <Result Value>
7.57

$$$$
>  <Molecule>
Cc1nc2c3c(c(C(F)(F)F)cc2n1C)-c1cccn2c(C(=O)c4cc(F)c(NC(=O)/C=C/CN(C)C)c(F)c4)cc(c12)CCO3 (single isomer, unassigned) [Example 38-1]

>  <Target Of Assay>
MIA PaCa-2 cells

>  <Result Value>
5.08

$$$$

Q) Sample Cc1nc2c3c(c(C(F)(F)F)cc2n1C)-c1cccn2c(C(=O)c4cc(F)c(NC(=O)/C=C/CNC5(C)COC5)c(F)c4)cc(c12)CCO3 (single isomer, unassigned) [Example 31-2] — what was its pIC50?
A) 5.04

Q) Then this molecule: CO[C@H]1CC[C@H](NC/C=C/C(=O)Nc2c(F)cc(C(=O)c3cc4c5c(cccn35)-c3c(C(F)(F)F)cc5c(nc(C)n5C)c3OCC4)cc2F)CC1 (single isomer, unassigned) [Example 30-2]
A) 5.80

Q) Could you do the same for CO[C@H]1CC[C@H](NC/C=C/C(=O)Nc2c(F)cc(C(=O)c3cn4c5c(cccc35)-c3c(Cl)cccc3OCCC4)cc2F)CC1 (single isomer, unassigned) [Example 4-1] , please?
A) 5.44

Q) Also CO[C@H]1CC[C@H](NC/C=C/C(=O)Nc2c(F)cc(C(=O)c3cn4c5c(cccc35)-c3c(C(F)(F)F)cc5c(nc(C)n5C)c3OCC4)cc2F)CC1 (single isomer, unassigned) [Example 12-1] , if possible.
A) 9.00

Q) Another molecule: CO[C@H]1CC[C@H](NC/C=C/C(=O)Nc2c(F)cc(C(=O)c3cn4c5c(cccc35)-c3c(Cl)cccc3OCC4)cc2F)CC1 (single isomer, unassigned) [Example 1-2]
A) 6.80
